Target: T1, mutant human CD20 #5 (P172S) (human, UniProt P11836 1-297)
T1 construct: Stably expressed on MG87 cells
T1 sequence: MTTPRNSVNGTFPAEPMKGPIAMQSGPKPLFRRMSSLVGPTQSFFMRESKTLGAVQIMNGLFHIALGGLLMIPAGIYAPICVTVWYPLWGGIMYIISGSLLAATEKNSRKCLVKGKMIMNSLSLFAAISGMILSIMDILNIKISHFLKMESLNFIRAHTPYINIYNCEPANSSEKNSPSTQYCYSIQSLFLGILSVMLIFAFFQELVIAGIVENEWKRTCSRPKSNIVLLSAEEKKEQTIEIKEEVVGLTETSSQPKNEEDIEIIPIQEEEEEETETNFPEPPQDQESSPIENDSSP
Test: FACS, mutant-hCD20 MG87 cells; 100%=best antibody
Experimental: Briefly, approximately 1×10⁶ cells from each stably transfected cell line expressing a mutant human CD20 were collected and incubated with each anti-human antibody, at 10 μg/ml, on ice for 1 hr, followed by incubation with APC-conjugated goat anti-human IgG (Jackson Immunolabs), at 10 μg/ml, on ice for 45 min. For each antibody, binding to each mutant human CD20 was assessed by flow cytometry.
Class Met: Percent of Binding to Mutant Human CD20 at least 70%. Class Not met: Percent of Binding to Mutant Human CD20 below 70%.

10E3-17 (antibody, V domains shown, Fully human IgG, constant region not specified; also called 10E3-17N) VH: EVQLVESGGGLVQPGRSLRLSCAASGFTFRDYAMHWVRQVPGKGLEWVSGISWNRGTIGYADSVKGRFTISRDNAKNSLFLQMNSLRADDTALYYCAKDHYYGSGSPYGMDVWGQGTTVTVSS VL: EIVLTQSPATLALSPGERATLSCRASQSVSKYLAWYQQKPGQAPRLLIYDASKRVTGIPGRLSGSGSGTDFTLTISSLEPEDFALYYCQQSSNWPITFGQGTRVEIK
Not met

Q: Please check the record 3H7-6 (antibody, V domains shown, Fully human IgG, constant region not specified; also called 3H7-6N) VH: EVQLVESGGGLVQPGRSLRLSCAASGFTFYDYAMHWVRQAPGKGLEWVSGISWNSGYIGYADSVKGRFTISRDNAKNSLYLQMNSLRAEDTALYYCAKDNSYGKFYYGLDVWGQGTTVTVSS VL: EIVMTQSPATLSVSPGERTTLSCRASQSVSSNLAWYLQKPGQAPRLLIYGASTRATGIPARFSGSGSGTEFILTISSLQSEDFAVYYCQQYNNWPITFGQGTRLEIK and state if its Percent of Binding to Mutant Human CD20 is at or above 70%.
Ans: Not met

Q: Hi team, for 2B7-7 (antibody, V domains shown, Fully human IgG, constant region not specified; also called 2B7-7N) VH: EVQLVESGGGLVQPGRSLRLSCAASGFTFRDYTMHWVRQGPGKGLEWVSGISWNSDYIGYADSVKGRFTISRDNAKNSLYLQMNSLRVEDTALYYCAKLSGTYRDYFYGVDVWGQGTTVTVSS VL: EIVLTQSPATLSLSPGERAALSCRASQSVSNYLAWYQQKPGQAPRLLIYDASNRATGIPARFSGSGSGTDFTLTISSLEPEDFAVYYCQQRSNWPLTFGGGTKVEIR , is the recorded Percent of Binding to Mutant Human CD20 at or above 70%?
Ans: Met

Q: Could you tell me if the measured Percent of Binding to Mutant Human CD20 of 9C11-14 (antibody, V domains shown, Fully human IgG, constant region not specified; also called 9C11-14N) VH: QVQLVESGGDSVKPGGSLRLSCAASGFTFSDSYMTWIRQAPGKGLEWVSFISSSGSTIYYADSVKGRFTISRDNVKKSLYLQMNRLRAEDTAVYYCAREEPGNYVYYGMDVWGQGTTVTVSS VL: EIVVTQSPATLSLSPGERATLSCRTSQTTTSYLAWYRQKPGQAPRLLIYDASNRAAGIPARFSGSGSGTDFTLTINSLEPEDFAVYYCQLRTNWITFGQGTRLEIK reaches 70% or more?
Ans: Not met
